// values below are reported inhibition at 0.01 µM
Target Entity: AR protein (Homo sapiens, UniProt P10275, T878A)
Construct: degradation activity of the compounds disclosed in the present disclosure on AR protein in LNCaP cells; host or cells: LNCaP FGC
Sequence (P10275 1-920 T878A): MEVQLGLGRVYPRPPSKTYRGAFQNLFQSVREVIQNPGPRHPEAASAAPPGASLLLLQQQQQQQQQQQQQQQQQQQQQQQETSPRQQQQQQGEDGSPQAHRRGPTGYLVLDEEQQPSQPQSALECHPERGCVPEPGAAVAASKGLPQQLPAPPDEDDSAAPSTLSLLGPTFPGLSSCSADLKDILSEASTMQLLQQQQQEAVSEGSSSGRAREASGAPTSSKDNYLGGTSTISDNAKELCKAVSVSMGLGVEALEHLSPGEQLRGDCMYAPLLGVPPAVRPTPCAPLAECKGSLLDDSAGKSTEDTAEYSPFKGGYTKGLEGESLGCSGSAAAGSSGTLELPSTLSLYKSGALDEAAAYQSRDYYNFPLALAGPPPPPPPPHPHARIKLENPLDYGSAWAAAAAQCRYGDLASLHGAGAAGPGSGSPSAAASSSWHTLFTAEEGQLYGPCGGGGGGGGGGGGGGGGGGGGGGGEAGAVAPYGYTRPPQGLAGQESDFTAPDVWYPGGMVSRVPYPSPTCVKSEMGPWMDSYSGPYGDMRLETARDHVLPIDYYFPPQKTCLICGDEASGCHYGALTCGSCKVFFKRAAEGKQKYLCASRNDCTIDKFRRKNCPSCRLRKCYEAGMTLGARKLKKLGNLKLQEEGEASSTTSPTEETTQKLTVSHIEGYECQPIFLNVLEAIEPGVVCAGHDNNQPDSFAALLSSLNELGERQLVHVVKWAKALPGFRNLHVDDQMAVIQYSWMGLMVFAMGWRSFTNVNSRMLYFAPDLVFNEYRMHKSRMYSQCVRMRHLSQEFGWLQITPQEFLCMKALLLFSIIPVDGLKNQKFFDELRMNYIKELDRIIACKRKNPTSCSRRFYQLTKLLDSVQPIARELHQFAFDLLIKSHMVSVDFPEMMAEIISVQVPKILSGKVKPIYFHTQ
Protocol Details: Degradation of AR protein in LNCaP cells (Western blot)
Format: cell-based
Condition Set: LNCaP cells, compound 10 nM, 8 hours, Western blot grayscale, GAPDH internal reference; read-out: Degradation rates of the AR protein in LNCaP cells, 10 nM (%)

- Molecule: "COCC1(CN2CCC3(CC2)COc2c3ccc3c2CN(C2CCC(=O)NC2=O)C3=O)CCN(c2ccc(C(=O)N[C@H]3CC[C@H](Oc4ccc(C#N)c(Cl)c4)CC3)nn2)CC1 (some centres unmarked)"
  Target Entity: "AR protein (Homo sapiens, UniProt P10275, T878A)"
  Unit: "%"
  inhibition at 0.01 µM: 71
- Molecule: "COc1cc(O[C@H]2C(C)(C)[C@H](NC(=O)c3ccc(N4CCC(C)(CN5CCC6(CCc7ccc8c(c7O6)CN(C6CCC(=O)NC6=O)C8=O)CC5)CC4)cc3)C2(C)C)ccc1C#N (some centres unmarked)"
  Target Entity: "AR protein (Homo sapiens, UniProt P10275, T878A)"
  Unit: "%"
  inhibition at 0.01 µM: 53
- Molecule: "COc1cc(O[C@H]2CC[C@H](NC(=O)c3ccc(N4CCC(CN5CC6(CCc7cc8c(cc7O6)C(=O)N(C6CCC(=O)NC6=O)C8=O)C5)(OC)CC4)nn3)CC2)ccc1C#N (some centres unmarked)"
  Target Entity: "AR protein (Homo sapiens, UniProt P10275, T878A)"
  Unit: "%"
  inhibition at 0.01 µM: 31
- Molecule: "N#Cc1ccc(O[C@H]2CC[C@H](NC(=O)c3ccc(N4CC5(CCC(N6CCC7(CCc8ccc9c(c8O7)CN(C7CCC(=O)NC7=O)C9=O)CC6)CC5)C4)nn3)CC2)cc1Cl (some centres unmarked)"
  Target Entity: "AR protein (Homo sapiens, UniProt P10275, T878A)"
  Unit: "%"
  inhibition at 0.01 µM: 23
- Molecule: "N#Cc1ccc(O[C@H]2CC[C@H](NC(=O)c3ccc(N4CCC(C#N)(CN5CCC6(CC5)COc5c6ccc6c5CN(C5CCC(=O)NC5=O)C6=O)CC4)nn3)CC2)cc1Cl (some centres unmarked)"
  Target Entity: "AR protein (Homo sapiens, UniProt P10275, T878A)"
  Unit: "%"
  inhibition at 0.01 µM: 52
